These entries and their values trace back to patent US5597832A.

Consider the following compounds and their measured pKi readings.
Biological target: dopamine D-1 receptor (Rattus norvegicus, UniProt P18901)
Sequence (P18901 whole entry): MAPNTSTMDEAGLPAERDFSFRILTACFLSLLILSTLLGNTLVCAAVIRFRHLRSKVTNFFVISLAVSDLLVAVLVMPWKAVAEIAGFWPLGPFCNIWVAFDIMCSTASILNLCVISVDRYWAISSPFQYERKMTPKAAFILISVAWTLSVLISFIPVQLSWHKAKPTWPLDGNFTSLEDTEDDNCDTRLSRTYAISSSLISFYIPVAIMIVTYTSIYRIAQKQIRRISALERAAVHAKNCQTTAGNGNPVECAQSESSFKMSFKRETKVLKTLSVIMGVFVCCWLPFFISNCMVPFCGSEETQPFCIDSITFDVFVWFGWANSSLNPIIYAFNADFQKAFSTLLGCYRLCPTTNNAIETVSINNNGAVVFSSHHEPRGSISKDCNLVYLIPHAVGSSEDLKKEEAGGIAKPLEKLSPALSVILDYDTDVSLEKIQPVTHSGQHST
Conditions: read-out: D-1 Ki
Structures can show the parent of a compound that is named as a salt.
Scale: negative log10 of molar concentration, which is what pKi denotes.

Which pKi is listed for CCc1cc2c(o1)CN[C@@H]1CCc3cc(O)c(O)cc3[C@@H]21 (relative stereo) [Example 40, hydrochloride] ?
7.82

And then CC(C)c1nc2c(o1)[C@@H]1c3cc(O)c(O)cc3CC[C@H]1NC2 (relative stereo) [Example 50, dihydrobromide] , what is it?
7.92

And then Cc1sc2c(c1C)CN[C@H]1CCc3cc(O)c(O)cc3[C@H]21 (relative stereo) [Example 21, hydrobromide] , what is it?
7.82

And then Cc1nc2c(o1)[C@@H]1c3cc(O)c(O)cc3CC[C@H]1NC2 (relative stereo) , what is it?
7.96

----------
Target: D-1 receptor
Assay: Adenylate cyclase assay (agonist activity, cAMP)
Format: biochemical, goldfish retina or rat striatum
Conditions: goldfish retina or rat striatum homogenate
Structures can show the parent of a compound that is named as a salt.
measuredParameter: pEC50
Scale: negative log10 of molar concentration, which is what pEC50 denotes.

compound: CC(C)CCc1cc2c(s1)[C@@H]1c3cc(O)c(O)cc3CC[C@H]1NC2 (relative stereo) [Example 30, hydrobromide]
pEC50: 6.98
--
compound: Cc1sc2c(c1C)CN[C@H]1CCc3cc(O)c(O)cc3[C@H]21 (relative stereo) [Example 21, hydrobromide]
pEC50: 6.74
--
compound: CC(C)(C)Cc1cc2c(s1)CN[C@H]1CCc3cc(O)c(O)cc3[C@H]21 (relative stereo)
pEC50: 6.67

Which pEC50 is listed for CCCc1nc2c(s1)CN[C@@H]1CCc3cc(O)c(O)cc3[C@@H]21 (relative stereo) [Example 54, dihydrobromide] ?
6.24

And then CCCc1nc2c(o1)CN[C@@H]1CCc3cc(O)c(O)cc3[C@@H]21 (relative stereo) [Example 53, dihydrobromide] , what is it?
6.00

And then CCCc1nc2c(s1)[C@H]1c3cc(O)c(O)cc3CC[C@@H]1NC2 (relative stereo) [Example 27, dihydrobromide] , what is it?
6.92

And then CCCCCCc1cc2c(s1)CN[C@@H]1CCc3cc(O)c(O)cc3[C@@H]21 (relative stereo) [Example 38, TFA salt] , what is it?
6.55

----------
Tested on: D-1 receptor
Assay: Adenylate cyclase assay (agonist activity, cAMP)
Format: biochemical, goldfish retina or rat striatum
Structures can show the parent of a compound that is named as a salt.
Consider the following compounds and their measured Intrinsic Activity (%) readings.
Reply numerically in %, unit not repeated.

Identify the measured Intrinsic Activity (%) of Oc1cc2c(cc1O)[C@H]1c3cc(-c4cccs4)sc3CN[C@@H]1CC2 (relative stereo) [Example 37, hydrobromide] for D-1 receptor.
65

And then Cc1nc2c(o1)[C@@H]1c3cc(O)c(O)cc3CC[C@H]1NC2 (relative stereo) , what is it?
100

And then CCCc1nc2c(s1)CN[C@@H]1CCc3cc(O)c(O)cc3[C@@H]21 (relative stereo) [Example 54, dihydrobromide] , what is it?
67

And then CC(C)c1nc2c(o1)[C@@H]1c3cc(O)c(O)cc3CC[C@H]1NC2 (relative stereo) [Example 50, dihydrobromide] , what is it?
108

And then CC(C)CCc1cc2c(s1)[C@@H]1c3cc(O)c(O)cc3CC[C@H]1NC2 (relative stereo) [Example 30, hydrobromide] , what is it?
70
